- Tested on: Rattus norvegicus
- assayProcedure: Diuretic activity in acute sodium loaded Wistar rat assessed as potassium level in urine at 50 mg/kg, po measured for 0 to 5 hrs post drug dosing by flame photometer relative to urea
- Assay type: functional
testReadout: Ratio

In [3]: df
Out[3]:
                                   molecule  obsvalue
0  O=S(=O)(c1ccccc1)N1CCC2(CC1)OC(c1ccccc1)c1ccccc12 (stereo unspecified)      0.57
1  NS(=O)(=O)c1cc2c(cc1Cl)N=CNS2(=O)=O [CHLOROTHIAZIDE]       1.1
2  COc1ccc(SN2CCC3(CC2)OC(c2ccccc2)c2ccccc23)cc1 (stereo unspecified)       0.8
3  [O-][S+](c1ccccc1)N1CCC2(CC1)OC(c1ccccc1)c1ccccc12 (stereo unspecified)         1
4  c1ccc(SN2CCC3(CC2)OC(c2ccccc2)c2ccccc23)cc1 (stereo unspecified)      0.97
5  O=[N+]([O-])c1ccc(SN2CCC3(CC2)OC(c2ccccc2)c2ccccc23)cc1 (stereo unspecified)       1.2
